Listing: Hemolysis (%) 150 µM of selected compounds
Test system: erythrocyte suspensions of horse blood
Settings: 150 µM peptide; horse erythrocytes 5% vol/vol, TRIS buffer pH 7.2, 1 h at 37°C, absorbance 540 nm; relative to melittin 100 μM; ± confidence interval (α = 0.05)
Where a SMILES comes first, the peptide text is derived from it. Side-chain parts run from the residue outwards. [ ]: non-standard residue; d: D form. The star is where a group is joined. Palmitoyl = CCCCCCCCCCCCCCCC(=O)*; Pentanoyl(4-Me) = CC(C)CCC(=O)*; Lauroyl = CCCCCCCCCCCC(=O)*; Octanoyl = CCCCCCCC(=O)*; Hexanoyl = CCCCCC(=O)*; Butyryl = CCCC(=O)*
Value expressed in %; do not type the unit.

Record excerpt, results attached:
CCCCCCCC(=O)NCCCC[C@@H]1NC(=O)[C@H](CCCCN)NC(=O)[C@H](CC(C)C)NC(=O)[C@H](CCCCN)NC(=O)[C@H](CCCCN)NC(=O)[C@H](CCC(N)=O)NC(=O)[C@H](CC(C)C)NC(=O)[C@H](CCCCN)NC(=O)[C@H](CCCCN)NC(=O)[C@H](Cc2c[nH]cn2)NC1=O [BPC670, c(KKLKK(CO-C7H15)HKKLQ)] (cyclo(HKKLQKKLKK(Octanoyl))) ... 34
CCCCCCCCCCCC(=O)NCCCC[C@@H]1NC(=O)[C@H](CCCCN)NC(=O)[C@H](CC(C)C)NC(=O)[C@H](CCCCN)NC(=O)[C@H](CCCCN)NC(=O)[C@H](CCC(N)=O)NC(=O)[C@H](CC(C)C)NC(=O)[C@H](CCCCN)NC(=O)[C@H](CCCCN)NC(=O)[C@H](Cc2ccccc2)NC1=O [BPC530, c(KKLKK(CO-C11H23)FKKLQ)] (cyclo(FKKLQKKLKK(Lauroyl))) ... 89

Request: Give its Hemolysis (%) 150 µM value. Item: CC(C)CCC(=O)NCCCC[C@@H]1NC(=O)[C@H](CCCCN)NC(=O)[C@H](CC(C)C)NC(=O)[C@H](CCCCN)NC(=O)[C@H](CCCCN)NC(=O)[C@H](CCC(N)=O)NC(=O)[C@H](CC(C)C)NC(=O)[C@H](CCCCN)NC(=O)[C@H](CCCCN)NC(=O)[C@H](Cc2c[nH]cn2)NC1=O [BPC638, c(KKLKK(CO-isoC5H11)HKKLQ)] (cyclo(HKKLQKKLKK(Pentanoyl(4-Me))))
Response: 6

Request: Quick one: CCCCCCCCCCCCCCCC(=O)NCCCC[C@@H]1NC(=O)[C@H](CCCCN)NC(=O)[C@H](CC(C)C)NC(=O)[C@H](CCCCN)NC(=O)[C@H](CCCCN)NC(=O)[C@H](CCC(N)=O)NC(=O)[C@H](CC(C)C)NC(=O)[C@H](CCCCN)NC(=O)[C@H](CCCCN)NC(=O)[C@H](Cc2ccccc2)NC1=O [BPC502, c(KKLKK(CO-C15H31)FKKLQ)] (cyclo(FKKLQKKLKK(Palmitoyl)))
Response: 78

Request: Note, next up: CCCCCC(=O)N[C@@H](CCCCN)C(=O)N[C@@H](CC(C)C)C(=O)NCCCC[C@@H]1NC(=O)[C@H](CCCCN)NC(=O)[C@H](CC(C)C)NC(=O)[C@H](CCCCN)NC(=O)[C@H](CCCCN)NC(=O)[C@H](CCC(N)=O)NC(=O)[C@H](CC(C)C)NC(=O)[C@H](CCCCN)NC(=O)[C@H](CCCCN)NC(=O)[C@@H](Cc2ccccc2)NC1=O [BPC674, c(KKLKK(LK-CO-nC5H11)fKKLQ)] (cyclo(KKLKK([Leu-Lys-Hexanoyl])[dF]KKLQ))
Response: 51

Request: Follow-up item: CCCC(=O)N[C@@H](CCCCN)C(=O)N[C@@H](CC(C)C)C(=O)NCCCC[C@@H]1NC(=O)[C@H](CCCCN)NC(=O)[C@H](CC(C)C)NC(=O)[C@H](CCCCN)NC(=O)[C@H](CCCCN)NC(=O)[C@H](CCC(N)=O)NC(=O)[C@H](CC(C)C)NC(=O)[C@H](CCCCN)NC(=O)[C@H](CCCCN)NC(=O)[C@@H](Cc2ccccc2)NC1=O [BPC726, c(KKLKK(LK-CO-C3H7)fKKLQ)] (cyclo(KKLKK([Leu-Lys-Butyryl])[dF]KKLQ))
Response: 0

Request: Query CCCCCC(=O)NCCCC[C@@H]1NC(=O)[C@H](CCCCN)NC(=O)[C@H](CCC(N)=O)NC(=O)[C@H](CC(C)C)NC(=O)[C@H](CCCCN)NC(=O)[C@H](CCCCN)NC(=O)[C@H](Cc2c[nH]cn2)NC(=O)[C@H](CCCCN)NC(=O)[C@H](CCCCN)NC(=O)[C@H](CC(C)C)NC1=O [BPC682] (cyclo(HKKLQKK(Hexanoyl)LKK)) next
Response: 20

Request: Quick one: CCCC(=O)NCCCC[C@@H]1NC(=O)[C@H](CCCCN)NC(=O)[C@H](CC(C)C)NC(=O)[C@H](CCCCN)NC(=O)[C@H](CCCCN)NC(=O)[C@H](CCC(N)=O)NC(=O)[C@H](CC(C)C)NC(=O)[C@H](CCCCN)NC(=O)[C@H](CCCCN)NC(=O)[C@H](Cc2ccccc2)NC1=O [BPC500, c(KKLKK(CO-C3H7)FKKLQ)] (cyclo(FKKLQKKLKK(Butyryl)))
Response: 28

Request: # repeat for CCCC(=O)NCCCC[C@@H]1NC(=O)[C@H](CCCCN)NC(=O)[C@H](CCC(N)=O)NC(=O)[C@H](CC(C)C)NC(=O)[C@H](CCCCN)NC(=O)[C@H](CCCCN)NC(=O)[C@@H](Cc2ccccc2)NC(=O)[C@H](CCCCN)NC(=O)[C@H](CCCCN)NC(=O)[C@H](CC(C)C)NC1=O [BPC714, c(KK(CO-C3H7)LKKfKKLQ)] (cyclo(KK(Butyryl)LKK[dF]KKLQ))
Response: 3

Request: Same question, CCCCCC(=O)NCCCC[C@@H]1NC(=O)[C@H](CCC(N)=O)NC(=O)[C@H](CC(C)C)NC(=O)[C@H](CCCCN)NC(=O)[C@H](CCCCN)NC(=O)[C@H](Cc2c[nH]cn2)NC(=O)[C@H](CCCCN)NC(=O)[C@H](CCCCN)NC(=O)[C@H](CC(C)C)NC(=O)[C@H](CCCCN)NC1=O [BPC688] (cyclo(HKKLQK(Hexanoyl)KLKK)) this time
Response: 1

Request: And the next one, CCCC(=O)NCCCC[C@H]1NC(=O)[C@H](CCCCN)NC(=O)[C@H](CCC(N)=O)NC(=O)[C@H](CC(C)C)NC(=O)[C@H](CCCCN)NC(=O)[C@H](CCCCN)NC(=O)[C@H](Cc2ccccc2)NC(=O)[C@H](CCCCN)NC(=O)[C@H](CCCCN)NC(=O)[C@H](CC(C)C)NC1=O [BPC704] (cyclo(FKKLQK[dK](Butyryl)LKK)) ?
Response: 9

----------
System: erythrocyte suspensions of horse blood;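 further: Read-out is hemoglobin release into the supernatant, with a buffer-only blank subtracted as the 0% baseline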
Details: 150 µM peptide; horse erythrocytes 5% vol/vol, TRIS buffer pH 7.2, 1 h at 37°C, absorbance 540 nm; relative to melittin 100 μM; ± confidence interval (α = 0.05)
Where a SMILES comes first, the peptide text is derived from it. Side-chain parts run from the residue outwards. [ ]: non-standard residue; d: D form. The star is where a group is joined. Oleoyl = CCCCCCCC/C=C\CCCCCCCC(=O)*; Hexanoyl = CCCCCC(=O)*; Butyryl = CCCC(=O)*
Reported Hemolysis (%) 150 µM values are given for each entry in this list.
Provide the reading as a plain figure in %.

CCCCCC(=O)NCCCC[C@@H]1NC(=O)[C@H](CCCCN)NC(=O)[C@H](CCC(N)=O)NC(=O)[C@H](CC(C)C)NC(=O)[C@H](CCCCN)NC(=O)[C@H](CCCCN)NC(=O)[C@H](Cc2ccccc2)NC(=O)[C@H](CCCCN)NC(=O)[C@H](CCCCN)NC(=O)[C@H](CC(C)C)NC1=O [BPC588] (cyclo(FKKLQKK(Hexanoyl)LKK)) ... 95
CCCCCC(=O)N[C@@H](CCCCN)C(=O)N[C@@H](CC(C)C)C(=O)NCCCC[C@@H]1NC(=O)[C@H](CCCCN)NC(=O)[C@H](CC(C)C)NC(=O)[C@H](CCCCN)NC(=O)[C@H](CCCCN)NC(=O)[C@H](CCC(N)=O)NC(=O)[C@H](CC(C)C)NC(=O)[C@H](CCCCN)NC(=O)[C@H](CCCCN)NC(=O)[C@H](Cc2ccccc2)NC1=O [BPC596, c(KKLKK(LK-CO-nC5H11)FKKLQ)] (cyclo(FKKLQKKLKK([Leu-Lys-Hexanoyl]))) ... 93
CCCC(=O)NCCCC[C@@H]1NC(=O)[C@H](CCCCN)NC(=O)[C@H](CCC(N)=O)NC(=O)[C@H](CC(C)C)NC(=O)[C@H](CCCCN)NC(=O)[C@H](CCCCN)NC(=O)[C@H](Cc2ccccc2)NC(=O)[C@H](CCCCN)NC(=O)[C@H](CCCCN)NC(=O)[C@H](CC(C)C)NC1=O [BPC708] (cyclo(FKKLQKK(Butyryl)LKK)) ... 2
CCCC(=O)NCCCC[C@@H]1NC(=O)[C@H](CCC(N)=O)NC(=O)[C@H](CC(C)C)NC(=O)[C@H](CCCCN)NC(=O)[C@H](CCCCN)NC(=O)[C@H](Cc2c[nH]cn2)NC(=O)[C@H](CCCCN)NC(=O)[C@H](CCCCN)NC(=O)[C@H](CC(C)C)NC(=O)[C@H](CCCCN)NC1=O [BPC722] (cyclo(HKKLQK(Butyryl)KLKK)) ... 3

Request: Consider the compound shown here: CCCCCCCC/C=C\CCCCCCCC(=O)NCCCC[C@@H]1NC(=O)[C@H](CCCCN)NC(=O)[C@H](CC(C)C)NC(=O)[C@H](CCCCN)NC(=O)[C@H](CCCCN)NC(=O)[C@H](CCC(N)=O)NC(=O)[C@H](CC(C)C)NC(=O)[C@H](CCCCN)NC(=O)[C@H](CCCCN)NC(=O)[C@H](Cc2ccccc2)NC1=O [BPC622, c(KKLKK(CO-C17H33)FKKLQ)] (cyclo(FKKLQKKLKK(Oleoyl))) What is its recorded Hemolysis (%) 150 µM?
Response: 91

Request: Another compound to check: CCCCCC(=O)NCCCC[C@H]1NC(=O)[C@H](CCCCN)NC(=O)[C@H](CC(C)C)NC(=O)[C@H](CCCCN)NC(=O)[C@H](CCCCN)NC(=O)[C@H](CCC(N)=O)NC(=O)[C@H](CC(C)C)NC(=O)[C@H](CCCCN)NC(=O)[C@H](CCCCN)NC(=O)[C@@H](Cc2ccccc2)NC1=O [BPC632, c(KKLKk(CO-nC5H11)fKKLQ)] (cyclo(KKLK[dK](Hexanoyl)[dF]KKLQ))
Response: 21

Request: CCCC(=O)N[C@@H](CCCCN)C(=O)N[C@@H](CC(C)C)C(=O)NCCCC[C@H]1NC(=O)[C@H](CCCCN)NC(=O)[C@H](CC(C)C)NC(=O)[C@H](CCCCN)NC(=O)[C@H](CCCCN)NC(=O)[C@H](CCC(N)=O)NC(=O)[C@H](CC(C)C)NC(=O)[C@H](CCCCN)NC(=O)[C@H](CCCCN)NC(=O)[C@H](Cc2ccccc2)NC1=O [BPC724, c(KKLKk(LK-CO-C3H7)FKKLQ)] (cyclo(FKKLQKKLK[dK]([Leu-Lys-Butyryl]))) ?
Response: 3
